Reference for the values: patent EP2042491A1

- procedure details: physchem
quantity name: chromatographic logP
Output spec: single numeric token, no unit.

The cases that follow already have their chromatographic logP on record.
Cc1cccc(Oc2c(C)nnc(Cl)c2-c2c(F)cccc2Cl)c1 = 3.99
Cc1nnc(Cl)c(-c2c(F)cccc2F)c1OCC1(C)CC1 = 3.53
Cc1nnc(Cl)c(-c2c(F)cccc2Cl)c1Oc1ccc(F)cc1 = 3.56
Cc1nnc(Cl)c(-c2c(F)cccc2Cl)c1Oc1ccc(Oc2ccc(Cl)cc2)cc1 = 5.03
COc1cccc(Sc2c(C)nnc(Cl)c2-c2c(F)cccc2Cl)c1 = 4.03

Lookup: Determine from records and report chromatographic logP for Cc1nnc(Cl)c(-c2c(F)cccc2Cl)c1Sc1cccc(OC(F)(F)F)c1
Found: 4.72

Lookup: Determine from records and report chromatographic logP for COc1cccc(Oc2c(C)nnc(Cl)c2-c2c(F)cccc2Cl)c1
Found: 3.56

Lookup: Determine from records and report chromatographic logP for Cc1nnc(Cl)c(-c2c(F)cccc2Cl)c1OC1CCCCC1
Found: 4.25

----------
- procedure details: physchem
Lab note - cut at 3 for chromatographic logP: T if strictly below, F if not.

Cc1nnc(Cl)c(-c2c(F)cccc2Cl)c1Oc1cccc(OC(F)(F)F)c1 = F
Cc1nnc(Cl)c(-c2c(F)cccc2Cl)c1Oc1ccc(C#N)cc1 = F

Lookup: hey, is chromatographic logP for NN(Cc1ccccc1)C(=O)Cc1c(F)cccc1Cl lower than 3 or not?
Found: T

Lookup: hey, is chromatographic logP for Cc1nnc(Cl)c(-c2c(F)cccc2F)c1N1CCOCC1 lower than 3 or not?
Found: T

Lookup: hey, is chromatographic logP for COc1nnc(C)c(N2CCC(C)CC2)c1-c1c(F)cccc1F lower than 3 or not?
Found: F

Lookup: hey, is chromatographic logP for Cc1nnc(Cl)c(-c2c(F)cccc2F)c1SC(C)C(C)C (stereo not drawn) lower than 3 or not?
Found: F

----------
- procedure details: physchem
quantity name: chromatographic logP

The cases that follow already have their chromatographic logP on record.
COCCOc1c(C)nnc(Cl)c1-c1c(F)cccc1Cl = 2.6
Cc1nnc(Cl)c(-c2c(F)cccc2Cl)c1Sc1cccc(C(F)(F)F)c1 = 4.51

Lookup: Determine from records and report chromatographic logP for Cc1nnc(Cl)c(-c2c(F)cccc2Cl)c1Oc1cccc(C(C)(C)C)c1
Found: 4.92

Lookup: Determine from records and report chromatographic logP for Cc1nnc(Cl)c(-c2c(F)cccc2F)c1NCC(C)(C)C
Found: 3.06

Lookup: Determine from records and report chromatographic logP for Cc1nnc(Cl)c(-c2c(F)cccc2F)c1O
Found: 1.41

Lookup: Determine from records and report chromatographic logP for C#CCOc1c(C)nnc(Cl)c1-c1c(F)cccc1F
Found: 2.5

Lookup: Determine from records and report chromatographic logP for Cc1nnc(Cl)c(-c2c(F)cccc2Cl)c1Oc1ccccc1F
Found: 3.51

Lookup: Determine from records and report chromatographic logP for Cc1nnc(Cl)c(-c2c(F)cccc2Cl)c1N1CCCC1
Found: 2.82
